species: Rattus norvegicus; assay: Open TG-GATES - Regimen: Single; type: toxicity, organism-based, Sprague-Dawley; parameters: regimen Single, gender Male, age 6 weeks; settings: in vivo, po, 0 mg/kg, 6 h, tissue Blood, route gavage, dose level Control
Listing of recorded PT by entry.

[
  {
    "Molecule": "Brc1ccccc1",
    "PT [s]": 12.4
  },
  {
    "Molecule": "NC1=NC(=O)C(c2ccccc2)O1 (stereo unspecified)",
    "PT [s]": 13.2
  },
  {
    "Molecule": "Nc1c2c(nc3ccccc13)CCCC2",
    "PT [s]": 16.1
  },
  {
    "Molecule": "CN(C)CCC(c1ccc(Cl)cc1)c1ccccn1 (stereo unspecified)",
    "PT [s]": 14.8
  },
  {
    "Molecule": "CCOc1ccc(NC(C)=O)cc1",
    "PT [s]": 14.1
  },
  {
    "Molecule": "Cc1nnc2n1-c1ccc(Cl)cc1C(c1ccccc1Cl)=NC2",
    "PT [s]": 13.5
  }
]

* * *

Listing of recorded KIDNEY_TOTAL by entry.
species on record: Rattus norvegicus; assay: Open TG-GATES - Regimen: Daily Repeat; assay type: toxicity, organism-based, Sprague-Dawley; design: regimen Daily Repeat, gender Male, age 6 weeks; conditions: in vivo, po, 100 mg/kg, […], tissue Kidney, route gavage, dose level Low, time 7 day

[
  {
    "Compound": "Cc1nnc2n1-c1ccc(Cl)cc1C(c1ccccc1Cl)=NC2 [TRIAZOLAM]",
    "KIDNEY_TOTAL": "2.1 g"
  },
  {
    "Compound": "O=C(OC[C@H]1O[C@@H](OC(=O)c2cc(O)c(O)c(OC(=O)c3cc(O)c(O)c(O)c3)c2)[C@H](OC(=O)c2cc(O)c(O)c(OC(=O)c3cc(O)c(O)c(O)c3)c2)[C@@H](OC(=O)c2cc(O)c(O)c(OC(=O)c3cc(O)c(O)c(O)c3)c2)[C@@H]1OC(=O)c1cc(O)c(O)c(OC(=O)c2cc(O)c(O)c(O)c2)c1)c1cc(O)c(O)c(OC(=O)c2cc(O)c(O)c(O)c2)c1 [TANNIC ACID]",
    "KIDNEY_TOTAL": "2.1 g"
  },
  {
    "Compound": "CCOc1ccc(NC(C)=O)cc1 [PHENACETIN]",
    "KIDNEY_TOTAL": "2.3 g"
  },
  {
    "Compound": "CNC(=C[N+](=O)[O-])NCCSCc1ccc(CN(C)C)o1 [RANITIDINE]",
    "KIDNEY_TOTAL": "2.2 g"
  },
  {
    "Compound": "CN/C(=N/CCSCc1nc[nH]c1C)NC#N [CIMETIDINE]",
    "KIDNEY_TOTAL": "2.2 g"
  },
  {
    "Compound": "COC(=O)C1=C(C)NC(C)=C(C(=O)OC)C1c1ccccc1[N+](=O)[O-] [NIFEDIPINE]",
    "KIDNEY_TOTAL": "2.1 g"
  }
]

* * *

organism: Rattus norvegicus; assay: Open TG-GATES - Regimen: Single; format: toxicity, organism-based, Sprague-Dawley; design: regimen Single, gender Male, age 6 weeks; settings: in vivo, po, 0 mg/kg, 3 h, tissue Plasma, route gavage, dose level Control

[
  {
    "Compound": "CNC(=C[N+](=O)[O-])NCCSCc1ccc(CN(C)C)o1",
    "CRE / mg/dL": 0.4
  },
  {
    "Compound": "CN(C)CCC(c1ccc(Cl)cc1)c1ccccn1 (configuration not stated)",
    "CRE / mg/dL": 0.2
  },
  {
    "Compound": "CN/C(=N/CCSCc1nc[nH]c1C)NC#N",
    "CRE / mg/dL": 0.3
  },
  {
    "Compound": "CCCc1cc(=O)[nH]c(=S)[nH]1",
    "CRE / mg/dL": 0.4
  },
  {
    "Compound": "Cc1nnc2n1-c1ccc(Cl)cc1C(c1ccccc1Cl)=NC2",
    "CRE / mg/dL": 0.2
  },
  {
    "Compound": "COC(=O)C1=C(C)NC(C)=C(C(=O)OC)C1c1ccccc1[N+](=O)[O-]",
    "CRE / mg/dL": 0.2
  },
  {
    "Compound": "CC(C)NNC(=O)c1ccncc1",
    "CRE / mg/dL": 0.2
  }
]

* * *

Listing of recorded MCH by entry.
species: Rattus norvegicus; experiment: Open TG-GATES - Regimen: Single; format: toxicity, organism-based, Sprague-Dawley; design: regimen Single, gender Male, age 6 weeks; details: in vivo, po, 100 mg/kg, 24 h, tissue Blood, route gavage, dose level Low
Property Label: MCH (pg)

[
  {
    "Smiles Notation": "O=C(OC[C@H]1O[C@@H](OC(=O)c2cc(O)c(O)c(OC(=O)c3cc(O)c(O)c(O)c3)c2)[C@H](OC(=O)c2cc(O)c(O)c(OC(=O)c3cc(O)c(O)c(O)c3)c2)[C@@H](OC(=O)c2cc(O)c(O)c(OC(=O)c3cc(O)c(O)c(O)c3)c2)[C@@H]1OC(=O)c1cc(O)c(O)c(OC(=O)c2cc(O)c(O)c(O)c2)c1)c1cc(O)c(O)c(OC(=O)c2cc(O)c(O)c(O)c2)c1",
    "Recorded Value": 21.9
  },
  {
    "Smiles Notation": "CNC(=C[N+](=O)[O-])NCCSCc1ccc(CN(C)C)o1",
    "Recorded Value": 22.7
  },
  {
    "Smiles Notation": "Cc1nnc2n1-c1ccc(Cl)cc1C(c1ccccc1Cl)=NC2",
    "Recorded Value": 20.7
  },
  {
    "Smiles Notation": "COC(=O)C1=C(C)NC(C)=C(C(=O)OC)C1c1ccccc1[N+](=O)[O-]",
    "Recorded Value": 20.8
  },
  {
    "Smiles Notation": "CN/C(=N/CCSCc1nc[nH]c1C)NC#N",
    "Recorded Value": 21.5
  }
]

* * *

species on record: Rattus norvegicus; test: Open TG-GATES - Regimen: Single; format: toxicity, organism-based, Sprague-Dawley; parameters: regimen Single, gender Male, age 6 weeks; conditions: in vivo, po, 300 mg/kg, 6 h, tissue Plasma, route gavage, dose level Middle

[
  {
    "Smiles Notation": "CNC(=C[N+](=O)[O-])NCCSCc1ccc(CN(C)C)o1",
    "ALP / IU/L": 918.8
  },
  {
    "Smiles Notation": "O=C(OC[C@H]1O[C@@H](OC(=O)c2cc(O)c(O)c(OC(=O)c3cc(O)c(O)c(O)c3)c2)[C@H](OC(=O)c2cc(O)c(O)c(OC(=O)c3cc(O)c(O)c(O)c3)c2)[C@@H](OC(=O)c2cc(O)c(O)c(OC(=O)c3cc(O)c(O)c(O)c3)c2)[C@@H]1OC(=O)c1cc(O)c(O)c(OC(=O)c2cc(O)c(O)c(O)c2)c1)c1cc(O)c(O)c(OC(=O)c2cc(O)c(O)c(O)c2)c1",
    "ALP / IU/L": 784.6
  },
  {
    "Smiles Notation": "CN/C(=N/CCSCc1nc[nH]c1C)NC#N",
    "ALP / IU/L": 926.2
  },
  {
    "Smiles Notation": "Cc1nnc2n1-c1ccc(Cl)cc1C(c1ccccc1Cl)=NC2",
    "ALP / IU/L": 1395
  },
  {
    "Smiles Notation": "COC(=O)C1=C(C)NC(C)=C(C(=O)OC)C1c1ccccc1[N+](=O)[O-]",
    "ALP / IU/L": 1503.6
  }
]

* * *

Listing of recorded Fbg by entry.
organism: Rattus norvegicus; test: Open TG-GATES - Regimen: Single; type: toxicity, organism-based, Sprague-Dawley; parameters: regimen Single, gender Male, age 6 weeks; conditions: in vivo, po, 0 mg/kg, 9 h, tissue Blood, route gavage, dose level Control

[
  {
    "Compound": "CCCc1cc(=O)[nH]c(=S)[nH]1 [PROPYLTHIOURACIL]",
    "Fbg (mg/dL)": 215.4
  },
  {
    "Compound": "CCOc1ccc(NC(C)=O)cc1 [PHENACETIN]",
    "Fbg (mg/dL)": 302.8
  },
  {
    "Compound": "Cc1nnc2n1-c1ccc(Cl)cc1C(c1ccccc1Cl)=NC2 [TRIAZOLAM]",
    "Fbg (mg/dL)": 271.8
  },
  {
    "Compound": "O=C(OC[C@H]1O[C@@H](OC(=O)c2cc(O)c(O)c(OC(=O)c3cc(O)c(O)c(O)c3)c2)[C@H](OC(=O)c2cc(O)c(O)c(OC(=O)c3cc(O)c(O)c(O)c3)c2)[C@@H](OC(=O)c2cc(O)c(O)c(OC(=O)c3cc(O)c(O)c(O)c3)c2)[C@@H]1OC(=O)c1cc(O)c(O)c(OC(=O)c2cc(O)c(O)c(O)c2)c1)c1cc(O)c(O)c(OC(=O)c2cc(O)c(O)c(O)c2)c1 [TANNIC ACID]",
    "Fbg (mg/dL)": 213
  },
  {
    "Compound": "CN1C(=O)CCS(=O)(=O)C1c1ccc(Cl)cc1 (stereo not drawn) [CHLORMEZANONE]",
    "Fbg (mg/dL)": 331.4
  },
  {
    "Compound": "CN/C(=N/CCSCc1nc[nH]c1C)NC#N [CIMETIDINE]",
    "Fbg (mg/dL)": 222.6
  },
  {
    "Compound": "Nc1c2c(nc3ccccc13)CCCC2 [TACRINE]",
    "Fbg (mg/dL)": 285.8
  },
  {
    "Compound": "NC1=NC(=O)C(c2ccccc2)O1 (stereo not drawn) [PEMOLINE]",
    "Fbg (mg/dL)": 293.8
  },
  {
    "Compound": "CNC(=C[N+](=O)[O-])NCCSCc1ccc(CN(C)C)o1 [RANITIDINE]",
    "Fbg (mg/dL)": 230
  },
  {
    "Compound": "CN(C)CCC(c1ccc(Cl)cc1)c1ccccn1 (stereo not drawn) [CHLORPHENIRAMINE]",
    "Fbg (mg/dL)": 294.4
  },
  {
    "Compound": "COC(=O)C1=C(C)NC(C)=C(C(=O)OC)C1c1ccccc1[N+](=O)[O-] [NIFEDIPINE]",
    "Fbg (mg/dL)": 297
  },
  {
    "Compound": "CC(C)NNC(=O)c1ccncc1 [IPRONIAZID]",
    "Fbg (mg/dL)": 314.5
  },
  {
    "Compound": "Brc1ccccc1 [BROMOBENZENE]",
    "Fbg (mg/dL)": 258.4
  }
]
